Reported apparent KD of MS2 coat protein values are given for each entry in this list.
Test system: MS2 coat protein
Experiment: apparent KD of MS2 coat protein; higher = weaker reporter binding
Condition Info: Eterna round: R107; input ligand: tryptophan 2.4 mM

[
  {
    "Sequence Code": "AGUCUAUGAAGAGAUACCAGUGAGAGACAUAGACAUGAGGAUCACCCAUGUGACAUGAAGCACCCUUGGCAGCUCAACGAGCUCA [Theo B SS t1]",
    "apparent KD of MS2 coat protein, µM": 0.039
  },
  {
    "Sequence Code": "UUAUUUAUAAUGGAUACCAGUCGUAUGGCCCGGCAUCCUGACAUGAGGAUCACCCAUGUCGACCCUUGGCAGCUGUUAUGGGUUU [XTheo B #21]",
    "apparent KD of MS2 coat protein, µM": 0.0138
  },
  {
    "Sequence Code": "ACUUGGUGGUGAUCCCUGCCAAGAGGUGAUACCAGCAUCGAAAGAUGCCCUUGGCAGCACCAACAUGAGGAUCACCCAUGUAAUA [(MT)''-(M)'-(T')-(Theo)-(Ms2)_Design1/22_6]",
    "apparent KD of MS2 coat protein, µM": 0.214
  }
]
